Molecular target: UniProtKB Q969S8
Sequence (Q969S8 whole entry): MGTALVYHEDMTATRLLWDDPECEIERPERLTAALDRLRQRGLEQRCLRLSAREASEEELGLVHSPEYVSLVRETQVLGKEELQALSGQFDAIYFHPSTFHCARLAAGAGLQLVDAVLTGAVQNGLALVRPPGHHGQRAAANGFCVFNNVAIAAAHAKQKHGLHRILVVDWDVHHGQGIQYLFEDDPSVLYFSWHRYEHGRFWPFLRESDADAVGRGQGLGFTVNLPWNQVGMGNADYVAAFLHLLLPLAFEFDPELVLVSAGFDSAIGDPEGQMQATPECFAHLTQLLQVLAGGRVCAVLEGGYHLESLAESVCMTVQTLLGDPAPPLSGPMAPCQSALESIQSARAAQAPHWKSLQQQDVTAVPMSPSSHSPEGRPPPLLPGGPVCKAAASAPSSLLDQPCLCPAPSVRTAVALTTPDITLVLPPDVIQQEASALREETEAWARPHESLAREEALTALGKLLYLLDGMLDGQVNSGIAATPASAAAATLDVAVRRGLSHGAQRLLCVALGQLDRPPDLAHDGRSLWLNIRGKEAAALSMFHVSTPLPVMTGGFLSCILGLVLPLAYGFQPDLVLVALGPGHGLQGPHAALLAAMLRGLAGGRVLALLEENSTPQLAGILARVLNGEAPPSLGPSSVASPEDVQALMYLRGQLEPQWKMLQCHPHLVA
Test: Inhibition of individual recombinant KDACs
pIC50: −log10 of the molar value.
Quantity Name: pIC50

1) C=C(CN1CCN(c2cccc(C(F)(F)F)n2)CC1)c1ccc(C(=O)Nc2ccccc2N)cc1	< 5.00

###

Tested on: HeLa nuclear KDACs
Test: Fluor-de-Lys HDAC fluorometric activity assay with HeLa nuclear extract
Type: biochemical
Conditions: HeLa nuclear extract, up to 20 µM; read-out: HDAC Inhibition IC50
Quantity Name: IC50

1) Nc1ccccc1NC(=O)c1ccc(CNC(=O)OCc2cccnc2)cc1 [Compound 1, Entinostat, reference compound]	3 µM
2) C=C(CN1CCN(c2cccc(C(F)(F)F)n2)CC1)c1ccc(C(=O)Nc2ccccc2N)cc1 [Compound 7]	> 20 µM
3) C=C(CN1CCN(c2ccc(C(F)(F)F)cc2)CC1)c1ccc(C(=O)Nc2ccccc2N)cc1 [Compound 5]	> 20 µM
4) C=C(CN1CCN(c2cccc(C(F)(F)F)c2)CC1)c1ccc(C(=O)Nc2ccccc2N)cc1 [Compound 4]	> 20 µM
5) C=C(CN1CCN(c2ccccn2)CC1)c1ccc(C(=O)Nc2ccccc2N)cc1 [Compound 6]	> 20 µM
6) C=C(CN1CCN(c2ccccc2C(F)(F)F)CC1)c1ccc(C(=O)Nc2ccccc2N)cc1 [Compound 3]	> 20 µM

###

Test system: UO-31
Test: NCI-60 cytotoxicity screen
Format: cell-based
Conditions: Homo sapiens, NCI-60, 48 h, renal
Text: Compounds 3–7 were submitted to the US National Cancer Institute (NIH, Bethesda, Maryland) for screening against the NCI-60 panel of human cancer cell lines, as per standard protocol.
Quantity Name: IC50 (nM)

1) C=C(CN1CCN(c2cccc(C(F)(F)F)c2)CC1)c1ccc(C(=O)Nc2ccccc2N)cc1 [Compound 4]	2390
2) C=C(CN1CCN(c2ccccn2)CC1)c1ccc(C(=O)Nc2ccccc2N)cc1 [Compound 6]	1800
3) C=C(CN1CCN(c2ccccc2C(F)(F)F)CC1)c1ccc(C(=O)Nc2ccccc2N)cc1 [Compound 3]	1000
4) C=C(CN1CCN(c2cccc(C(F)(F)F)n2)CC1)c1ccc(C(=O)Nc2ccccc2N)cc1 [Compound 7]	2750
5) C=C(CN1CCN(c2ccc(C(F)(F)F)cc2)CC1)c1ccc(C(=O)Nc2ccccc2N)cc1 [Compound 5]	970
6) Nc1ccccc1NC(=O)c1ccc(CNC(=O)OCc2cccnc2)cc1 [Compound 1, Entinostat, reference compound]	1170

###

System: T-47D
Assay: NCI-60 cytotoxicity screen
Type: cell-based, human
Settings: Homo sapiens, T47D; NCI-60, 48 h, breast
Quantity Name: IC50 (µM)

1. Nc1ccccc1NC(=O)c1ccc(CNC(=O)OCc2cccnc2)cc1 [Compound 1, Entinostat, reference compound]	0.46
2. C=C(CN1CCN(c2ccc(C(F)(F)F)cc2)CC1)c1ccc(C(=O)Nc2ccccc2N)cc1	21.8
3. C=C(CN1CCN(c2cccc(C(F)(F)F)n2)CC1)c1ccc(C(=O)Nc2ccccc2N)cc1	3.01
4. C=C(CN1CCN(c2ccccc2C(F)(F)F)CC1)c1ccc(C(=O)Nc2ccccc2N)cc1	7.67
5. C=C(CN1CCN(c2cccc(C(F)(F)F)c2)CC1)c1ccc(C(=O)Nc2ccccc2N)cc1	13.2
6. C=C(CN1CCN(c2ccccn2)CC1)c1ccc(C(=O)Nc2ccccc2N)cc1	1.23
